# ASSAY_EXPLANATION: In vivo pharmacokinetics after single intravenous injection in SD rats (plasma)
# CONDITION_SUMMARY: Sprague-Dawley (SD), rat, single IV 5 mg/kg, read-out: MRT(0-t)
# Experimental: 1. […] The mixture was stirred or sonicated until completely dissolved to obtain a clear solution at a concentration of 1 mg/mL for administration by intravenous injection. 2. […] The concentration of each test compound in the plasma and tissue samples was determined. The accuracy of quality control samples was evaluated while analyzing the samples, and more than 66% of the quality control samples were required to have an accuracy between 80% and 120%. […]
QUANTITY_NAME: MRT last (min)
Lab book: enter the figure in min, no units written.

COc1ccc(Cl)cc1C(=O)NCCc1ccc(S(=O)(=O)NC(=O)N[C@@H]2CCCC[C@H]2C#N)cc1 : 42
O=C(NC1CCCCC1)NS(=O)(=O)c1ccc(CCNC(=O)c2cc(Cl)ccc2OC(F)(F)F)cc1 : 114
COc1ccc(C#N)cc1C(=O)NCCc1ccc(S(=O)(=O)NC(=O)NC2CCCCC2)cc1 : 60

Kindly consider the entry below.
Given item "O=C(NC1CCCCC1)NS(=O)(=O)c1ccc(CCNC(=O)c2cc(Cl)ccc2O)cc1" , the value recorded as its MRT last is 54

---

# ASSAY_EXPLANATION: In vivo pharmacokinetics after single intravenous injection in SD rats (plasma)
# CONDITION_SUMMARY: rat, single IV 5 mg/kg
QUANTITY_NAME: AUC(0-t) (ng·h/mL)
Lab book: enter the figure in ng·h/mL, no units written.

Given item "COc1ccc(Cl)cc1C(=O)NCCc1ccc(S(=O)(=O)NC(=O)N[C@H]2CC[C@H](O)CC2)cc1" , the value recorded as its AUC(0-t) is 12900

---

# ASSAY_EXPLANATION: In vivo pharmacokinetics after single intravenous injection in SD rats (plasma)
# CONDITION_SUMMARY: SD, rat, iv, 5 mg/kg, single IV 5 mg/kg, read-out: Vz
# Protocol: 1. […] The mixture was stirred or sonicated until completely dissolved to obtain a clear solution at a concentration of 1 mg/mL for administration by intravenous injection. 2. […] The concentration of each test compound in the plasma and tissue samples was determined. The accuracy of quality control samples was evaluated while analyzing the samples, and more than 66% of the quality control samples were required to have an accuracy between 80% and 120%. […]
QUANTITY_NAME: Vd (L/kg)
Lab book: enter the figure in L/kg, no units written.

Given item "COc1ccc(Cl)cc1C(=O)NCCc1ccc(S(=O)(=O)NC(=O)N[C@H]2CC[C@H](O)CC2)cc1" , the value recorded as its Vd is 1.66

---

# ASSAY_EXPLANATION: In vivo pharmacokinetics after single intravenous injection in SD rats (plasma)
# CONDITION_SUMMARY: Sprague-Dawley (SD), rat, single IV 5 mg/kg
# Method: 1. […] The mixture was stirred or sonicated until completely dissolved to obtain a clear solution at a concentration of 1 mg/mL for administration by intravenous injection. 2. […] The concentration of each test compound in the plasma and tissue samples was determined. The accuracy of quality control samples was evaluated while analyzing the samples, and more than 66% of the quality control samples were required to have an accuracy between 80% and 120%. […]
# AUC(0-inf) listing for each entry below
Lab book: enter the figure in ng·h/mL, no units written.

COc1ccc(C#N)cc1C(=O)NCCc1ccc(S(=O)(=O)NC(=O)NC2CCCCC2)cc1 : 28600
O=C(NC1CCCCC1)NS(=O)(=O)c1ccc(CCNC(=O)c2cc(Cl)ccc2O)cc1 : 28700
O=C(NC1CCCCC1)NS(=O)(=O)c1ccc(CCNC(=O)c2cc(Cl)ccc2OC(F)(F)F)cc1 : 36400

Kindly consider the entry below.
Given item "COc1ccc(Cl)cc1C(=O)NCCc1ccc(S(=O)(=O)NC(=O)N[C@@H]2CCCC[C@H]2C#N)cc1" , the value recorded as its AUC(0-inf) is 4980
